Each entry below carries its reported inhibition at 10 ppm.
system: Colletotrichum falcatum; test: Fungicidal activity against Glomerella tucumanensis assessed as mycelial inhibition at 10 ppm at 28 +/- 2 degC measured after 7 days by food poison technique; format: functional; conditions: 168 h
property-label: inhibition at 10 ppm (%)

>>> data_value("CCOP(=O)(OCC)S/C(=N/N=C/c1ccc(OC)cc1)N1CCN(/C(=N\\N=C\\c2ccc(OC)cc2)SP(=O)(OCC)OCC)CC1")
36.4
>>> data_value("CCOP(=O)(OCC)S/C(=N/N=C/c1ccc(Cl)cc1)N1CCN(/C(=N\\N=C\\c2ccc(Cl)cc2)SP(=O)(OCC)OCC)CC1")
42.5
>>> data_value("COc1ccc(/C=N/NC(=S)N2CCN(C(=S)N/N=C/c3ccc(OC)cc3)CC2)cc1")
22.1
>>> data_value("S=C(N/N=C/c1ccccc1)N1CCN(C(=S)N/N=C/c2ccccc2)CC1")
14.1
>>> data_value("CCOP(=O)(OCC)S/C(=N/N=C/c1ccccc1Cl)N1CCN(/C(=N\\N=C\\c2ccccc2Cl)SP(=O)(OCC)OCC)CC1")
55.2
>>> data_value("O=[N+]([O-])c1ccc(/C=N/NC(=S)N2CCN(C(=S)N/N=C/c3ccc([N+](=O)[O-])cc3)CC2)cc1")
11.6
>>> data_value("S=C(N/N=C/c1ccc(Cl)cc1)N1CCN(C(=S)N/N=C/c2ccc(Cl)cc2)CC1")
24.8
>>> data_value("CCOP(=O)(OCC)S/C(=N\\N=C\\c1ccc([N+](=O)[O-])cc1)N1CCN(/C(=N\\N=C\\c2ccc([N+](=O)[O-])cc2)SP(=O)(OCC)OCC)CC1")
25.8
>>> data_value("CCOP(=O)(OCC)S/C(=N/N=C/c1ccccc1)N1CCN(/C(=N\\N=C\\c2ccccc2)SP(=O)(OCC)OCC)CC1")
25.8
>>> data_value("S=C(N/N=C/c1ccccc1Cl)N1CCN(C(=S)N/N=C/c2ccccc2Cl)CC1")
21.2

----------
system: Curvularia pallescens; experiment: Fungicidal activity against Cochliobolus pallescens assessed as mycelial inhibition at 100 ppm at 28 +/- 2 degC measured after 7 days by food poison technique; format: functional; settings: 168 h
Each entry below carries its reported inhibition at 100 ppm.
property-label: inhibition at 100 ppm (%)

>>> data_value("CCOP(=O)(OCC)S/C(=N/N=C/c1ccccc1Cl)N1CCN(/C(=N\\N=C\\c2ccccc2Cl)SP(=O)(OCC)OCC)CC1")
86.8
>>> data_value("COc1ccc(/C=N/NC(=S)N2CCN(C(=S)N/N=C/c3ccc(OC)cc3)CC2)cc1")
45.8
>>> data_value("S=C(N/N=C/c1ccccc1Cl)N1CCN(C(=S)N/N=C/c2ccccc2Cl)CC1")
47.3

----------
test system: Curvularia pallescens; experiment: Fungicidal activity against Cochliobolus pallescens assessed as mycelial inhibition at 100 ppm at 28 +/- 2 degC measured after 7 days by food poison technique; format: functional; conditions: 168 h
Each entry below carries its reported inhibition at 100 ppm.
property-label: inhibition at 100 ppm

>>> data_value("O=[N+]([O-])c1ccc(/C=N/NC(=S)N2CCN(C(=S)N/N=C/c3ccc([N+](=O)[O-])cc3)CC2)cc1")
"31.1%"
>>> data_value("CCOP(=O)(OCC)S/C(=N/N=C/c1ccccc1)N1CCN(/C(=N\\N=C\\c2ccccc2)SP(=O)(OCC)OCC)CC1")
"49.5%"
>>> data_value("S=C(N/N=C/c1ccccc1)N1CCN(C(=S)N/N=C/c2ccccc2)CC1")
"32.1%"
>>> data_value("CCOP(=O)(OCC)S/C(=N/N=C/c1ccc(Cl)cc1)N1CCN(/C(=N\\N=C\\c2ccc(Cl)cc2)SP(=O)(OCC)OCC)CC1")
"88.2%"
>>> data_value("S=C(N/N=C/c1ccc(Cl)cc1)N1CCN(C(=S)N/N=C/c2ccc(Cl)cc2)CC1")
"49.2%"
>>> data_value("CCOP(=O)(OCC)S/C(=N\\N=C\\c1ccc([N+](=O)[O-])cc1)N1CCN(/C(=N\\N=C\\c2ccc([N+](=O)[O-])cc2)SP(=O)(OCC)OCC)CC1")
"58.2%"
>>> data_value("CCOP(=O)(OCC)S/C(=N/N=C/c1ccc(OC)cc1)N1CCN(/C(=N\\N=C\\c2ccc(OC)cc2)SP(=O)(OCC)OCC)CC1")
"80.5%"
